system tested: human ether-à-go-go-related gene (hERG) potassium channel (human, UniProt Q12809);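 note: peak tail current of the secondary pulse compared with the same well before compound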
Sequence (Q12809 whole entry, looked up): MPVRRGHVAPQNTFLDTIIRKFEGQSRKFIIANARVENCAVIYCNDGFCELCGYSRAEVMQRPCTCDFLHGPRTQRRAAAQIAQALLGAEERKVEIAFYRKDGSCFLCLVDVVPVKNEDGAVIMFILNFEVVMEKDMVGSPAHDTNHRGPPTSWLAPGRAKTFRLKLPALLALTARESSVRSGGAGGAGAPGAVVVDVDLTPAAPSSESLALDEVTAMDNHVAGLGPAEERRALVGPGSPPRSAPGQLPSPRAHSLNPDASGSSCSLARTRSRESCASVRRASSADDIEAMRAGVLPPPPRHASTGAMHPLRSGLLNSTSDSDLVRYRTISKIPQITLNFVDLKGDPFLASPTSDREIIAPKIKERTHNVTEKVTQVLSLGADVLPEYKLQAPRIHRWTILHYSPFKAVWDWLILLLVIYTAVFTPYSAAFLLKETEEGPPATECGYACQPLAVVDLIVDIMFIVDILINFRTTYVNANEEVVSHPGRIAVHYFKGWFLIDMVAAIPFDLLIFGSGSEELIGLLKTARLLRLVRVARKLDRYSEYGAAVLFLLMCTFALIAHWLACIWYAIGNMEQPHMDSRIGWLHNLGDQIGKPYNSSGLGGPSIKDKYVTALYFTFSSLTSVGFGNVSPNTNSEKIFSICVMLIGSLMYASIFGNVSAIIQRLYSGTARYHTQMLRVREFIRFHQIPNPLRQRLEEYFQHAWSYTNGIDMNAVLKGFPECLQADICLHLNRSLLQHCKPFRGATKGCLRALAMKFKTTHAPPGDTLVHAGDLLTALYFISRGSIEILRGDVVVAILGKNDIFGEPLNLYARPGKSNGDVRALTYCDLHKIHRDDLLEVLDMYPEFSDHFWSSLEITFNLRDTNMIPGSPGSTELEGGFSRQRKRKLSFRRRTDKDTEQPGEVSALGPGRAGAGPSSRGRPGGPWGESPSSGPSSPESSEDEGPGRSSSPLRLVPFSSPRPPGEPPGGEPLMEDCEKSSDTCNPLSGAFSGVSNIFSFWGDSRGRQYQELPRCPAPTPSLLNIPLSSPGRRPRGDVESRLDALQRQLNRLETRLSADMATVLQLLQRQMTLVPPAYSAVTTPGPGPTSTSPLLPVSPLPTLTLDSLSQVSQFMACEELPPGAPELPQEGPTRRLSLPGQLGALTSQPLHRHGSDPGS
assay info: primary screen, population patch clamp on CHO cells stably expressing hERG; higher = less effect of the substance
The whole screen tested about 310,000 compounds, of which about 14,000 (4.5%) showed an effect of 50% or more. Effects have a minus sign here. The entries come from a sample that favours strong results as a whole.
# label = 1 if hERG current change (%, negative = inhibition) at 10uM >= -10% else -1

IN: Confirm if hERG current change (%, negative = inhibition) at 10uM reported for the molecule Cc1ccc(NC(=O)C(C)Oc2ccccc2)cc1S(=O)(=O)N1CCCCCC1 (stereo not shown) is -10% or above.
OUT: 1

IN: Same question for `Cc1ccccc1CSCCNC(=O)CSCc1ccc([N+](=O)[O-])cc1` please.
OUT: -1

IN: Now consider CCOc1ccc(NC(=O)C(C)Oc2ccc(C#N)cc2)cc1S(=O)(=O)N1CCCC1 (stereo not shown) and answer again.
OUT: -1

IN: Next: CC1CCCCC1NC(=O)Cn1cc([N+](=O)[O-])ccc1=O (stereo not shown)
OUT: 1

IN: // query: `COc1cc(CNC(C)(C)C)cc(Br)c1OCc1cccs1.Cl`
OUT: -1

IN: Same question for CCOc1ccc(NC(=O)C(C)NC(=O)c2ccccc2Cl)cc1S(=O)(=O)N1CCCC1 (stereo not shown) please.
OUT: -1

IN: Can you handle `O=C(Cc1ccc([N+](=O)[O-])cc1)N/N=C/c1cccnc1` next?
OUT: 1

IN: Next molecule up: `Cc1cccc(N2N=C(C(=O)O)CCC2=O)c1`
OUT: 1

IN: Same for `Cc1oc2c(C)c3oc(=O)c(CCC(=O)NCCCN4CCOCC4)c(C)c3cc2c1C`
OUT: 1

IN: Then `COc1ccc(NC(=S)NC(=O)C2CCC2)cc1` ?
OUT: 1
